Data provenance: BindingDB's records for patent US20250051327

# TEST_SYSTEM: Mucosa-associated lymphoid tissue lymphoma translocation protein 1 (Homo sapiens)
# Sequence (Q9UDY8 whole entry): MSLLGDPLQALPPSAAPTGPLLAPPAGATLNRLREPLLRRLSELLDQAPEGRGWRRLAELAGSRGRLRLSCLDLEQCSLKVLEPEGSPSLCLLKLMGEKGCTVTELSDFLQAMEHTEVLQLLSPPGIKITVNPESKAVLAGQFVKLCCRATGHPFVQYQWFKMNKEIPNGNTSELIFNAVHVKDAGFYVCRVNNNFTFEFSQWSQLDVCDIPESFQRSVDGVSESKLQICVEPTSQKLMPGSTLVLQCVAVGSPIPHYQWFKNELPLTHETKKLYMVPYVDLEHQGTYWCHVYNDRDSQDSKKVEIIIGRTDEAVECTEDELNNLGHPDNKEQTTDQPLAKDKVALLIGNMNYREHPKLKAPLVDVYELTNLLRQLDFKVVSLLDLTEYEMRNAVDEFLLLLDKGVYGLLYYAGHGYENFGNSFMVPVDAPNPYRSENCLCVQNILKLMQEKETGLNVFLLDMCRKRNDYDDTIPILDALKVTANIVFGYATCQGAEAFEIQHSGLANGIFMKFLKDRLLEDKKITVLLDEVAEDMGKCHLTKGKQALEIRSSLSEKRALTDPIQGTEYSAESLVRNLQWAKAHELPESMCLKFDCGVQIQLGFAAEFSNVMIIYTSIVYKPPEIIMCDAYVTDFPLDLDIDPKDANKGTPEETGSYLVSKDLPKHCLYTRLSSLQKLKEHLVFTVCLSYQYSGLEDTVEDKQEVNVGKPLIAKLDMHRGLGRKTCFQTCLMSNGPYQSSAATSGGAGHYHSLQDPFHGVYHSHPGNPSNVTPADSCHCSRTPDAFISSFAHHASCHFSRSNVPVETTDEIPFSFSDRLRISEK
MEASUREMENT_TYPE: pIC50
Give bare numbers, as −log10 of the molar value.

# example entries with known answers
Input line: // returns reported pIC50 for input COc1ccc2ncc(Nc3ccc([C@H](N(C)C(=O)C4CCS(=O)(=O)CC4)C(F)(F)F)cc3)c([C@@H](C)OC)c2n1 (relative stereo) [US20250051327, Reference CPD0019171]
Output line: 6.71

Input line: Request: COc1ccc2ncc(Nc3ccc([C@H](N(C)C(=O)[C@H]4CNC(=O)C4)C(F)(F)F)cc3)c([C@H]3CCOC3)c2n1 (relative stereo) [US20250051327, Reference CPD0084143]
Output line: 7.14

Input line: What would you report for COc1ccc2ncc(Nc3ccc([C@H](N(C)C(=O)[C@H]4CNC(=O)C4)C(F)(F)F)cc3)c([C@@H]3CCOC3)c2n1 (relative stereo) [US20250051327, Reference CPD0082477] ?
Output line: 7.39

Input line: Same lookup for CO[C@@H](C)c1c(Nc2ccc([C@H](N(C)C(=O)C3CN(S(C)(=O)=O)C3)C(F)(F)F)cc2)cnn2cc(Cl)nc12 [US20250051327, Reference CPD0084936] , please.
Output line: 7.19

Input line: Also need C[C@H]1CCN(c2ccc([C@H](N(C)C(=O)[C@H]3CC[S@@](=N)(=O)CC3)C(F)(F)F)cc2)c2cnc3cc(F)nn3c21 (relative stereo) [US20250051327, Reference CPD0074554] , thanks.
Output line: 7.36

Go through the items and report each one's pIC50.
1. COc1ccc2ncc(Nc3ccc([C@H](N(C)C(=O)[C@H]4CC[S@@+]([O-])CC4)C(F)(F)F)cc3)c([C@H](C)OC)c2n1 (relative stereo) [US20250051327, Reference CPD0072935]
2. CO[C@@H](C)c1c(Nc2ccc([C@H](N(C)C(=O)[C@H]3CCC(=O)NC3)C(F)(F)F)cc2)cnn2cc(Cl)nc12 (relative stereo) [US20250051327, Reference CPD0082471]
3. COc1ccc2ncc(Nc3ccc([C@H](N(C)C(=O)[C@@H]4CNC(=O)C4)C(F)(F)F)cc3)c([C@H]3CCOC3)c2n1 (relative stereo) [US20250051327, Reference CPD0084144]
4. COc1ccc2ncc(Nc3ccc([C@H](N(C)C(=O)C4CCS(=O)(=O)CC4)C(F)(F)F)cc3)c([C@@H]3CCCO3)c2n1 (relative stereo) [US20250051327, Reference CPD0074044]
5. O=C(CC1CS(=O)(=O)C1)N[C@@H](c1ccc(N2CCCc3c2cnc2cc(Cl)nn32)cc1)C(F)(F)F [US20250051327, Reference CPD0073535]

Output line:
[7.12, 7.43, 7.12, 6.66, 6.39]
